meta.source: a melting point compilation (Tetko et al.; mined from patent text by program, amines drawn as free bases though some values may be those of a salt)

melting point values by entry
assay-readout: melting point

molecule=C[C@]1(COc2ccc(N3CCC(N4CCN(c5ccc(OC(F)(F)F)cc5)CC4)CC3)cc2)Cn2cc([N+](=O)[O-])nc2O1 value_reported="279 to 281 °C"
molecule=CSc1nn2c(N3CCN(C)CC3)cc(Cl)nc2c1S(=O)(=O)c1ccccc1 value_reported="> 230 °C"
molecule=O=C(N[C@@H](Cc1ccccc1)C(=O)N[C@@H](Cc1cncn1COCc1ccccc1)C(=O)O)C1CCCC1 value_reported="195 to 197 °C"
molecule=COc1ccnc(CCc2nc3cc(-c4ccc(NC(C)=O)cc4)cnc3[nH]2)c1 value_reported="220 to 221 °C"
molecule=Cc1noc(NC(=O)N2CCN(c3nccc(-c4c(F)cccc4F)n3)CC2)c1C value_reported="189 to 190 °C"
molecule="O=C(O)c1ccc(CCCC2SCC(=O)N2CC#CC2(O)CCCCC2)cc1 (centres undefined)" value_reported="112 to 115 °C"
molecule=c1ccc(CN2CCN(c3cccc4cccnc34)CC2)cc1 value_reported="116 to 118 °C"
molecule=COC(=O)c1cccc(Cl)c1N value_reported="36 °C"
molecule="CCN(CC)CCC1(C#N)c2ccccc2COc2ccccc21 (centres undefined)" value_reported="87 to 90 °C"

###

List of melting point values.
assay-readout: melting point

compound=c1ccc(-c2ccc(-c3nc(COc4ccc(CCCn5ccnc5)cc4)co3)o2)cc1 value_reported="130 to 131 °C"
compound=CC(=O)NC[C@H]1CN(c2ccc(C3CCN(C(=O)CO)CC3)c(F)c2)C(=O)O1 value_reported="182 to 183 °C"
compound=CC(=O)C(C)(C)N1COC(C)=C(c2ccccc2)C1=O value_reported="118 to 119 °C"
compound=CCCCCCCCCCCCS(=O)(=O)CCOc1ccc(CCC(=O)C(F)(F)F)cc1 value_reported="55 to 56 °C"
compound=Cc1cc(C)c2c(=O)n(CC(=O)N3CCNCC3)sc2n1 value_reported="175 to 177 °C"
compound=CC(=O)Nc1ccc(S(=O)(=O)N2CCCCC2)cc1 value_reported="137 to 139 °C"
compound=CS(=O)(=O)c1ccc(-c2cnn(-c3cccc(Cl)c3)c(=O)c2OCc2ccccc2)cc1 value_reported="110 to 113 °C"
compound="CCC(=O)OC1C(=O)N(CCNC)c2ccc(C)cc2SC1c1ccc(C)cc1 (stereo not given)" value_reported="128 to 132 °C"
compound=O=c1oc(-c2ccccc2)cc(O)c1Sc1cccc2ccccc12 value_reported="242 to 243 °C"
compound=O=C(CN1C(=O)c2ccccc2C1=O)Nc1ccccc1Cc1ccccc1 value_reported="232 °C"

###

assay-readout: melting point

query_smiles=O=C(Nc1ccc(Br)cn1)C1=C(O)c2ccccc2N(c2ccccc2)C1 assay_readout="melting point" value_reported="153 to 154 °C"
query_smiles=CCOc1cc(N2CCOCC2)c(OCC)cc1N=NNN1CCOCC1 assay_readout="melting point" value_reported="137 to 139 °C"
query_smiles=CC(=O)c1ccc(-c2ccc(Br)cc2F)cc1 assay_readout="melting point" value_reported="94.5 to 95.5 °C"
query_smiles=Cc1ccccc1OCCCc1oc(-n2ccnc2C)nc1-c1ccc(Cl)cc1 assay_readout="melting point" value_reported="111 to 112 °C"
query_smiles=CC(=O)Oc1ccc(C#Cc2ccccc2)cc1 assay_readout="melting point" value_reported="104 to 106 °C"
query_smiles=CCOC(=O)c1cnc(C)nc1NCc1ccc(-c2ccccc2-c2nnnn2C(c2ccccc2)(c2ccccc2)c2ccccc2)cc1 assay_readout="melting point" value_reported="155 to 156 °C"
query_smiles=COc1ccc(Cn2c(=O)[nH]c3nccnc3c2=O)cc1 assay_readout="melting point" value_reported="233 to 234 °C"
query_smiles=CNc1ccc(-c2nc(C(=O)Nc3nccs3)c(-c3cccc(OC)c3)[nH]2)cc1 assay_readout="melting point" value_reported="248 to 251 °C"
query_smiles=CNC(=O)c1ccn2nc(-c3ccccc3)c(-c3ccc(=O)n(C(C)C)n3)c2c1 assay_readout="melting point" value_reported="225 to 226 °C"
query_smiles=CCCC[C@H](NC(=O)[C@H](CC(C)C)NC(=O)C1CCN(C(C)=O)CC1)C(=O)CSCc1ccco1 assay_readout="melting point" value_reported="110 to 112 °C"
query_smiles=CCNc1ccc(-c2ccnc3c(C(=O)c4cccs4)cnn23)cc1 assay_readout="melting point" value_reported="130 to 132 °C"
query_smiles=CC(=O)c1cc(NC(=O)OC(C)(C)C)ccc1O assay_readout="melting point" value_reported="107 to 108 °C"
query_smiles=NS(=O)(=O)c1cccc(-c2cccc(-c3nc(-c4ccc(C(F)(F)F)cc4)cc(C(F)F)n3)c2)c1 assay_readout="melting point" value_reported="204 °C"
query_smiles=COc1ccc([N+](=O)[O-])cc1NC(=O)CC(=O)C1(C)COC(C)(C)OC1 assay_readout="melting point" value_reported="113 to 115 °C"
query_smiles=C[C@H]1NC(Cc2ccc(Br)c(Oc3cc(C#N)cc(C(F)F)c3)c2F)=NNC1=O assay_readout="melting point" value_reported="184 to 186 °C"
query_smiles=O=C(Nc1ccccn1)c1nc2ccccc2[nH]1 assay_readout="melting point" value_reported="206 °C"
query_smiles=C=C(F)C[C@@H](C(=O)O)N(Cc1cccnc1)S(=O)(=O)c1ccc(OC)cc1 assay_readout="melting point" value_reported="172 °C"
query_smiles=Cc1cc(S(=O)(=O)N(CC(N)=O)c2ccc(Cl)cc2Cc2cc(F)ccc2F)c(C)cc1Cl assay_readout="melting point" value_reported="170 °C"
query_smiles=Cc1nc2cnccc2n1-c1ccc(OCc2cccc(SCc3nc4cc(F)ccc4s3)c2)cc1 assay_readout="melting point" value_reported="119 to 121 °C"

###

Each entry below carries its recorded melting point.
assay-readout: melting point

compound=CCCCCCCCCCCCCCCSCCCO assay_readout="melting point" value_reported="36 to 39 °C"
compound=CCOc1nn(CCc2ccc(OCc3nc(-c4ccccc4)oc3C)cc2)cc1CCC(=O)O assay_readout="melting point" value_reported="110 to 111 °C"
compound=C#Cc1cccc(Nc2nc(Nc3cccc(C#C)c3)nc(-c3ccccc3)n2)c1 assay_readout="melting point" value_reported="210 °C"
compound=CCCCCCCc1ccc(C(=O)Cc2cccc(C#N)c2)cc1 assay_readout="melting point" value_reported="68 °C"
compound=CC(=O)n1cc(C#N)c(-c2cccc(Cl)c2F)c1 assay_readout="melting point" value_reported="141 to 142 °C"
compound=Fc1ccc(-c2nn3cccnc3c2-c2ccncc2)cc1 assay_readout="melting point" value_reported="194 °C"
compound=CCCCCCCCCCC=CCc1c[nH]c(C(=O)NN)c1 assay_readout="melting point" value_reported="130 to 132 °C"
compound="COc1ccc(C(=O)C(CC(=O)O)c2ccccc2)cc1 (configuration not stated)" assay_readout="melting point" value_reported="157 to 159 °C"
compound=O=S(=O)(Nc1cccc(Cl)c1)c1ccc(Nc2nc(OCC3CCCCC3)c3nc[nH]c3n2)cc1 assay_readout="melting point" value_reported="248 to 249 °C"
compound=CCC(CC)NC(=O)Nc1cc(-c2c(-c3ccc(F)c(C)c3)nc3cccnn23)ccn1 assay_readout="melting point" value_reported="187 to 188 °C"
compound=O=C(NCC1CCN(CC2(C(=O)O)CCCC2)CC1)N1C(=O)C2(CCCC2)c2ccccc21 assay_readout="melting point" value_reported="188 °C"
compound=COC(=O)CC[C@H](NC(=O)c1ccc(CCn2cnc3nccc-3c2O)cc1)C(=O)OC assay_readout="melting point" value_reported="170 to 172 °C"
compound=CNc1cc(Oc2cc(C(F)(F)F)nn2C)nc(Oc2cc(C(F)(F)F)nn2C)c1 assay_readout="melting point" value_reported="118 °C"
compound="C=CCC12CCC(=O)C1(C)CCC1c3ccc(OC)cc3CCC12 (configuration not stated)" assay_readout="melting point" value_reported="75 to 77 °C"
compound=CCOCc1nc2c(N)nc3ccccc3c2n1CCCC1(O)CCCCC1 assay_readout="melting point" value_reported="175 to 176 °C"
compound=O=C=Nc1ccc2c(c1)C(=O)CC2 assay_readout="melting point" value_reported="72 °C"
compound=COc1nc(-c2ccc(F)cc2)c(-c2ccc(S(C)(=O)=O)cc2)cc1C#N assay_readout="melting point" value_reported="202 to 204 °C"
compound=Cc1cc2c(-c3cccnc3Cl)nc(O)nc2s1 assay_readout="melting point" value_reported="> 300 °C"
compound=CC1(C)OC[C@H](COc2nc(Oc3ccc(F)cc3F)nc3[nH]nc(-c4ccccc4Cl)c23)O1 assay_readout="melting point" value_reported="70.1 to 75.9 °C"
compound="COC(=O)C1(Cl)CC1C(=O)O (configuration not stated)" assay_readout="melting point" value_reported="77.7 to 79.1 °C"
compound=CN1C(=S)Nc2ccncc2S1(=O)=O assay_readout="melting point" value_reported="195 to 198 °C"
compound=O=c1oc2ccccc2c(O)c1CCCOc1ccccc1 assay_readout="melting point" value_reported="125 to 126 °C"
